- test system: T1, Human N-terminally SNAP-tagged GIPR (human, UniProt P48546 22-466, SNAP tag labeled with Tag-Lite SNAP-Lumi4-Tb)
- T1 sequence (looked up): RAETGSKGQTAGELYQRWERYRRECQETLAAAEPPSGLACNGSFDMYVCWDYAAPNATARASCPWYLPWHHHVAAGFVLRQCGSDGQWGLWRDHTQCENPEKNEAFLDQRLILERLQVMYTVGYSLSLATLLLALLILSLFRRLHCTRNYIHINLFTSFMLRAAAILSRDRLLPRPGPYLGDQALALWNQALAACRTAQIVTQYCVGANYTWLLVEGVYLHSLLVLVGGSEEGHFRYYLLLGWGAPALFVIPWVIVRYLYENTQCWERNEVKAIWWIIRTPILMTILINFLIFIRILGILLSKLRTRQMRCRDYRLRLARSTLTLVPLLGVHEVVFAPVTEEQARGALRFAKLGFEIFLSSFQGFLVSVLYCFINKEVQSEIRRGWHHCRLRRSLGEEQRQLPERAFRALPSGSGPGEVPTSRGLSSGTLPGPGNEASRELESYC
- assay comment: cell-based or functional assay
*1 amine or outer side, *2 acyl side, *3 side chain or, on linkers, in order; H or OH if unused. Where no end group is shown, it is not given here. Side-chain parts run from the residue outwards. The star is where a group is joined. C18 diacid = O=C(O)CCCCCCCCCCCCCCCCC(=O)*; γGlu = O=C(O)[C@H](CCC(=O)[*:2])N[*:1]; AEEA = NCCOCCOCC(=O)O

[
  {
    "binder": "HADGTFTSDYSTILDKLAARDFINWLIQTKGKKNDWK([AEEA-AEEA-γGlu-C18 diacid])HNITQ-OH [Compound 25]",
    "Absolute hGIPR internalization (AUC)": "13.1 AUC"
  },
  {
    "binder": "HADGTFTSDYSIILDK([AEEA-AEEA-γGlu-C18 diacid])LAARDFINWLIQTKGKKNDWKHNITQ-OH [Compound 20]",
    "Absolute hGIPR internalization (AUC)": "14.2 AUC"
  },
  {
    "binder": "HXDGTFISDYSTILDNLAARDFINWLIQTKITK (Aib at position 2; K33 acylated with C10, K(C10); C-terminal amide (-NH2)) [Compound 1]",
    "Absolute hGIPR internalization (AUC)": "5.3 AUC"
  },
  {
    "binder": "HADGTFTSDYSTILDK([AEEA-AEEA-γGlu-C18 diacid])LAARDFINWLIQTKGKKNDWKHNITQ-OH [Compound 21]",
    "Absolute hGIPR internalization (AUC)": "10.2 AUC"
  },
  {
    "binder": "HADGTFTSDYSTILDKK([AEEA-AEEA-γGlu-C18 diacid])AARDFINWLIQTKGKKNDWKHNITQ-OH [Compound 23]",
    "Absolute hGIPR internalization (AUC)": "1.2 AUC"
  }
]
